Ref: patent US20180244777A1

# Assayed System: human CD3ε expressed on the cell surface of T cells (Jurkat cells; human CD8+ T cells) (human, UniProt P07766 23-207)
# Assay Remarks: cell-based or functional assay
Experimental Readout: Fold increase in CD69 expression [MFI normalized to neg. ctrl.], 5 µg/ml anti-CD3 IgG (fold)

{"Binder": "clone-10 (antibody, V domains shown, Recombinant rabbit IgG) VH: QSLEESGGRLVTPGTPLTLTCTVSGFPLSSFAMLWVRQAPGKGLEWIGMIMRAHNMYYASWAKGRFTISKTSTTVDLEITSPTTEDTATYFCARRHYNTYGYPIAIGDLWGPGTLVTVSS VL: AQVLTQTPSSVSAAVGGTATISCQSNENIYSNNRLSWFQQKAGQPPNQLIYSASSLASGVPSRFKGSGSGTQFTLTISDLECDDAATYYCQGEFSCSSADCFTFGGGTEVVVKG", "Reported": 4.2}
{"Binder": "clone-04 (antibody, V domains shown, Recombinant rabbit IgG; also called Clone 4) VH: QSLEESGGRLVKPDETLTLTCTVSGFPLSSYAMGWFRQAPGKGLEWIGMILRSDNTYYASWAKGRFTISKTSTTVDLKITSPTTEDTATYFCARRHYNASGNPIAIGDLWGPGTLVTVSS VL: AQVLTQTPSSVSAAVGGTVTINCQSSQSVYNNNRLSWFQQKPGQPPKLLIYTTSSLASGVPSRFKGSGSGTEFTLTISDLECADAATYYCQGEFSCSRADCFNFGGGTEVVVKG", "Reported": 3.5}
